# System: K4 kissing-loop RNA reporter
# Experimental details: apparent KD of K4 kissing-loop reporter; higher = weaker reporter binding
# Condition summary: Eterna round: R107; input ligand: tryptophan 2.4 mM
Property label: apparent KD of K4 kissing-loop reporter
Hey, just the number and the unit after it is fine.

CUCAGAAAGACUGUCCAAGUGAUGUUUGGACGAGGACCGGUACGGCCGCCACUCGCUGUUGCGAAUGUUAAGGUACGAGUCGCGG [theeternabot_exclusion_KL_Trp_A_30]
91.7 nM

Go through the items and report each one's apparent KD of K4 kissing-loop reporter.
1. CUGAGCCUGACGCAAGUCAGGCUCUGCGAGCGAGGACCGGUACGGCCGCCACUCGGUGCAGUGAUGUUGCAUGGCCGCAAGGCCG [#2 Exclusion - Tryptophan A Attempt #21 (HarryS)]
2. UGAUAGGACAGAAGGAGCGGUAGUGAUGUUACCAAAAGGAUAAGGUGUCAAAAGACACCCUGCCAGGUAGGUCGCUGUCCUAUCU
3. GAACCAGAGGUUGCUGCGGGUUCCAGAGAUACCAGCCGUAUUGAAGGCCCUUGGCAGCUCGAGUGAUGUUCGAGCCGCCUCUGGC [Antius]
4. ACUGGAAUUGUACUCCAGUGAUGUUGGAGGCAGGAUAUCCAGUAAAGGAGAAGGGCCAUCGCGCUAUUUGGCCGCAGGCGGCCAG [Acela]
5. GAUAUAGUGAUGUUAUAUACUGAUAGACAACGAGGACCGGUACGGCCGCCACUCGAGAGGGUGAAAUUAAUGAUAAAAUAAUAAU [ExyTryA#2]

306 nM
87 nM
103 nM
150 nM
270 nM

====

Task for the reader: assign each of the following sequences its reported apparent KD of MS2 coat protein.
# System: MS2 coat protein
# Experimental details: apparent KD of MS2 coat protein, switch ON state; designed switch direction (-1 OFF switch, 1 ON switch): -1; higher = weaker reporter binding
# Condition summary: FMN input: 0 or 200 uM; Eterna round: R93 (includes R88 designs)
Give bare numbers, in nM.

Go through the items and report each one's apparent KD of MS2 coat protein.
1. AACCAACAUGAGGAUCACCCAUGUCAGGAUAUGCGUACAACAUACAACAUACAUCAAAGCAGAAGGGACACAAA [Amethyst 84]
2. AGCUAGUCAGGAUAUACGAACAUGUCAAAAGACGUGAAGGAACAUGAGGAUCACCCAUGUAGAAGGGACUAGCA [Diamond 19]
3. CUCUAGUGAGGAUAUACAAGAAAAGAAGAGAAAGAAAAGAAGUAGAAGGCACAUGAGGAUCACCCAUGUAAGAA [EteRNA is fun!]

1: 20.2; 2: 19.3; 3: 24.7

====

# System: MS2 coat protein
# Experimental details: apparent KD of MS2 coat protein; higher = weaker reporter binding
# Condition summary: Eterna round: R107; input ligand: none
Property label: apparent KD of MS2 coat protein (nM)
Numbers only, in nM.

Reference set, count: 4
UGACAUUGCUCAGAUACCAGACGUGAGGAUCACCCACGUGCCAACAAGUACAUAAUAAAUGUCCCUUGGCAGCUGAGCAAUGUCU [TheoBX 17 #MS2Left #Theo2 #AlternativeMS2]
11.2
GCGAUGGAGCGAAGGAGCGUGCUGGUACAUGAGGAUCACCCAUGUGAGUCGCAGCGCUAAGCACAGGUAGGUCGCGCUCCAUCGC [EAB NP+V+V2 #11]
28
GCGGUACGUACUGAUACCAGAGACAUGAGGAUCACCCAUGUCCCAUGGUCAUGCCUCAGACUCCCUUGGCAGCAGGAUAAGUGCG [Exclusion Theophylline B GF3]
13.9
UGUAUGUGAUCUGAUACCAGUCCAACUGGUAAAAUCUGAGGAUCACCCAGGUAAAAUUGGGACCCUUGGCAGCAGAUCGCAUACU
175

Turning now to a further sequence:
Supply apparent KD of MS2 coat protein value. Item: UAGAUAGAGGGAAGGAGCGCGAUAACAUAACAUGAGGAUCACCCAUGUAAGAAAUUAAUAAUGCAGGUAGGUCGCCCAAGAUGAU [Same State Arginine B gf1]
14.5

====

# System: MS2 coat protein
# Experimental details: apparent KD of MS2 coat protein, switch ON state; designed switch direction (-1 OFF switch, 1 ON switch): 1; higher = weaker reporter binding
# Condition summary: FMN input: 0 or 200 uM; Eterna round: R93 (includes R88 designs)
Task for the reader: assign each of the following sequences its reported apparent KD of MS2 coat protein.
One number for each entry, in nM.

Reference set, count: 2
AAAAAACAUGAGGAUCACCCAUGUAAUACAACAUCAGGAUAUUGAUUUUACUAUGUAUUGCAAGAAGGGAUGAAAA [Same State 1.3a (Same State 1 - Omei 2 )]
71.2
AAAUAAAUAAAAAAGGAUAUAAAAAAGUACACAUGAGGAUCACCCAUGUGUACACAUGGGUGAUCCUAGAAGGAAAAAUAAAAAA [SS2: 91 No MS2]
117

Turning now to a further sequence:
Supply apparent KD of MS2 coat protein value. Item: AAAAAACAUGAGGAUCACCCAUGUCUUCGGACGUGAGGAUAUGUACAGACUUCGGUCUGUACAGAAGGCAUGUAAA [SS1 - 1052]
286

====

# Test system: MS2 coat protein
# Experimental details: apparent KD of MS2 coat protein, switch OFF state (with FMN for OFF switches, without FMN for ON switches); designed switch direction (-1 OFF switch, 1 ON switch): -1; higher = weaker reporter binding
# Condition summary: FMN input: 0 or 200 uM; Eterna round: R93 (includes R88 designs)
Rule: apparent KD of MS2 coat protein under 40 nM gives not satisfied, otherwise satisfied.

Answered cases to consult:
ACCGAACAUGAGGAUCACCCAUGUGAGGAUAUAGACGCAAAUUAAACGCGUAACAAAACUAGAAGGCACUGGGC [Veais]
not satisfied
GGUUGUGUAGGAUAUACAUGAGGAUCACCCAUGUGAGAGAAAAAAGUGAGAAAGAAAAGUAGAAGGACGUGACG [salish99-ex3-72]
satisfied
AAAAUGGCAGGAUAUACUAAAAUAAAAAACUAUGCUAAAACACAUGAGGAUCACCCAUGUAGAAGGGCCAAAAA [AJ 5]
not satisfied
AAAGGGUCAGGAUAUGUACGAACAACAAAACAAAUAACGGUACAGAAGGGACAUGAGGAUCACCCAUGUAUAAA [May 73]
satisfied
AUAGUACAUGAGGAUCACCCAUGUCAGGAUAUCGGAUAUGACAUGAAAAACAUGUUAACGAGAAGGGACUAUAA [EX1 Malc#19]
not satisfied

Tell me whether apparent KD of MS2 coat protein is at least 40 nM here: AGCUAGUCAGGAUAUGCAUGAAAAAAAAAAAAAAAAAAAAAACAUGAGGAUCACCCAUGUAGAAGGGACUAGCA [Starry Exclusion 2 (jandersonlee round 1 mod)]
satisfied

====

Task for the reader: assign each of the following sequences its reported apparent KD of K4 kissing-loop reporter.
# System: K4 kissing-loop RNA reporter;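 further: bound reporter read as fluorescence of individual clusters on recovered sequencing chips by microscopy, with normalized cluster intensities fitted with a binding model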
# Experimental details: apparent KD of K4 kissing-loop reporter; higher = weaker reporter binding
# Condition summary: Eterna round: R107; input ligand: FMN 200 uM
Give bare numbers, in nM.

Go through the items and report each one's apparent KD of K4 kissing-loop reporter.
1. UAUCAGAUUACUGAUACCAGUCUAAAGACAGUGAUGUUGUCUGAUCGACCACGAUCCAAGGACCCUUGGCAGCAGUGUACUAUUC [#30 K4 Theophylline B Same State]
2. UAUUAAUUGUCAGGAUAUCGUAUUCGAGUGAUGUUCGUAUAUCGACGAUAGUCGAUAUUAUUUAUACGAGAAGGGACAUUAUUUA [JR_SSFMNB_Sub005]

1. 177
2. 292

Go through the items and report each one's apparent KD of K4 kissing-loop reporter.
1. UCCUGCAAUCGUCCACGAAAGUGGAUUGAUACCAGAGUCGAAAGACUCCCUUGGCAGCGAGUGAUGUUCGAAGCAGGUAAAUAAA
2. GGUGACUACCAGAGGUGAUGUAUAGUAUCGCGAGGACCGGUACGGCCGCCACUCGUGAAGAGAAAGGAGUGAUGUUCCGUAAUGG [Kazoo C8]

432
396

====

# Tested on: MS2 coat protein
# Experimental details: apparent KD of MS2 coat protein; designed switch direction (-1 OFF switch, 1 ON switch): -1; higher = weaker reporter binding
# Condition summary: input ligand: FMN 200 uM
Property label: apparent KD of MS2 coat protein (nM)
Numbers only, in nM.

Reference set, count: 5
CGUCCACUUGAGGAUCACCCAAGUUAGGAUAUCUCCCGGCUCGCAAAUGCAGUCGGUCAGAGAAGGAACCAGGG [Qualaon] (Eterna round: R97, puzzle: Exclusion 1)
59.6
AUUUAGCAAGCGUGAUCCUACAUGAGGAUCACCCAUGUAGUUCGUCUUAUUUGAAGACAACACAAAAGUGUUGUCUU [Omei Mir OFFv1 B8] (Eterna round: R97, puzzle: Sensor, turn-off variant 1)
355
ACUUACUGAGGAUAUACAUAGAUUUACAUGAGGAUCACCCAUGUUCCUCUAUGUAUAUAUGUAGAAGGCAGAAGAU [Mat - Exclusion 5 - JL Mod - D34] (Eterna round: R97, puzzle: Exclusion 5)
56.9
UUAAUAUAUCAGGAUAUGAUUAUAUGUGUUAAAUCAGAAGGGAUAACAUGAGGAUCACCCAUGUUGUGGAGUGA [JR_Ex6_Sub033] (Eterna round: R97, puzzle: Exclusion 6)
303
AAAUUGUGAGGAUAUUCGUAGUACUCGGAGACGAGUAUUACGGAGAAGGCACAUGAGGAUCACCCAUGUUCCUU [Mat - Exclusion 4 - JL Mod - D20] (Eterna round: R97, puzzle: Exclusion 4)
88.3

Go through the items and report each one's apparent KD of MS2 coat protein.
1. UAUUUAGCAAGCAGAUCCCACAUGAGGAUCACCCAUGUUCUCUGAAAGUACAGAAUUACUGUACAUGCUCGUCUUAU [Winner reversed engineered 33] (Eterna round: R97, puzzle: Sensor, turn-off variant 1)
2. GAAAACGCAGAGGAUAUAUCAGAUCAAAGCUGCAUAGAAGGCUGCACAUGAGGAUCACCCAUGUGGUCUUUAAU [Mat - Exclusion 6 - JL Mod - D1] (Eterna round: R97, puzzle: Exclusion 6)
3. UUUAUAUAGUAAGGAUAUGUAUUAAUUUUAUCAACAGAAGGUACUGACAUGAGGAUCACCCAUGUUUUAGUGUGGGCAUGUAGU [JMF's solution 93] (Eterna round: R96, puzzle: Exclusion NG 1)

[108, 237, 543]

Numbers sourced from the supplement of paper PMC9170038.
